assay.protocol: in vitro
measurement.context: rat, gh3-tre-luc cells, AC50 (uM) modified / 1000, Tox21_110001=Tox21_301903; viability, 1 nM T3 present, 24 h
property.name: CC50 at 24 h (µM)
Use µM as the unit, but write only the number.

Item: COP(=S)(Oc1cc(Cl)c(Br)cc1Cl)c1ccccc1 (stereo not shown) | CC50 at 24 h: 72.3

###

assay.protocol: in vitro
measurement.context: rat, gh3-tre-luc cells, AC50 (uM) modified / 1000, Tox21_110001=Tox21_200686; viability, 1 nM T3 present, 24 h
property.name: CC50 at 24 h (µM)
Value expressed in µM; do not type the unit.

Note to self: CC50 at 24 h recorded for COc1ccc2c(c1OC)C(=O)O[C@@H]2[C@H]1c2cc3c(cc2CCN1C)OCO3 [Hydrastine] was 6.92

###

assay.protocol: in vitro
measurement.context: rat, gh3-tre-luc cells, AC50 (uM) modified / 1000
property.name: CC50 at 24 h

compound	reported.result
CN1CCC(=C2c3ccccc3CCc3cccnc32)CC1	47.7 µM

Field CC50 at 24 h (entry O=C(CC(C(=O)OC1CCCCC1)S(=O)(=O)O)OC1CCCCC1 (centres unmarked) [Dicyclohexyl sodium sulfosuccinate] ) reads > 90 µM

Reported CC50 at 24 h ( CC(=O)NCCCCCC(=O)O ) = > 50 µM

Cc1ccc(S(=O)(=O)N=C=O)cc1 [p-Toluenesulphonyl isocyanate] has a reported CC50 at 24 h of > 90 µM

The reported value for CN(C)CCc1c[nH]c2ccc(CS(=O)(=O)N3CCCC3)cc12 in terms of CC50 at 24 h is > 50 µM

Memo: Cn1c(=O)c2[nH]c(Br)nc2n(C)c1=O , reported CC50 at 24 h: > 50 µM

Measured CC50 at 24 h, O=S(=O)(O)c1ccc(N=Nc2c(O)ccc3cc(S(=O)(=O)O)ccc23)cc1 : 38.5 µM

// COc1ccc(CCC(=O)c2c(O)cc(O[C@@H]3O[C@H](CO)[C@@H](O)[C@H](O)[C@H]3O[C@@H]3O[C@@H](C)[C@H](O)[C@@H](O)[C@H]3O)cc2O)cc1O [Neohesperidin dihydrochalcone] : CC50 at 24 h value = > 90 µM

###

assay.protocol: in vitro
measurement.context: rat, gh3-tre-luc cells, AC50 (uM) modified / 1000, Tox21_110001=Tox21_202080; viability, 1 nM T3 present, 24 h
property.name: CC50 at 24 h

The recorded CC50 at 24 h for CC(=O)C=C(C)C [4-Methylpent-3-en-2-one] is > 100 µM

###

assay.protocol: in vitro
measurement.context: rat, gh3-tre-luc cells, AC50 (uM) modified / 1000
Where a name gives a salt, the structure may show the parent alone.
Measured CC50 at 24 h values are reported for all entries that follow.

Worked examples, 6 molecules total:
molecule	CC50 at 24 h
OC(CCN1CCCCC1)(c1ccccc1)C1CCCCC1 (stereo not shown) [Trihexyphenidyl hydrochloride]	> 50 µM
CCN(CC)CCOC(=O)C(O)(c1ccccc1)c1ccccc1	> 50 µM
Cn1c(=O)c2c(ncn2CC2OCCO2)n(C)c1=O	> 50 µM
O=[N+]([O-])c1ccccc1	> 90 µM
CCN(CC)CCOC(=O)[C@H](Cc1cccc2ccccc12)C[C@H]1CCCO1 [Nafronyl oxalate]	> 20 µM
CCc1cc(Cl)c(OC)c(C(=O)NC[C@@H]2CCCN2CC)c1O [Eticlopride hydrochloride]	19.6 µM

Notebook: CCCCC(CC)COS(=O)(=O)O (stereo not shown) [Sodium ethasulfate] , CC50 at 24 h read as > 90 µM

Form: molecule = CN1CCN2c3ccccc3Cc3ccccc3C2C1 (stereo not shown) ; CC50 at 24 h = 20.6 µM

According to the records, this molecule CC1(C)C(=O)C(C)(C)C1=O displays CC50 at 24 h of > 90 µM

For Cl/C(=C\n1cncn1)c1ccc(Cl)cc1Cl [Loreclezole hydrochloride] the molecule record lists CC50 at 24 h as > 50 µM

Data point: Cc1ccc(C(=O)O)cc1 ; CC50 at 24 h = > 90 µM

For this molecule ( C=CCCCCCCCCO ), measured CC50 at 24 h is > 90 µM

Just so you know, measured CC50 at 24 h for ClC(Cl)(Br)Br came out at > 90 µM

response.value for CC1(C)Cc2cccc(N)c2O1 (field: CC50 at 24 h) = > 90 µM

Measured CC50 at 24 h, CC(=O)OCC1=C(C(=O)O)N2C(=O)[C@@H](NC(=O)Cc3cccs3)[C@H]2SC1 : > 50 µM

The recorded CC50 at 24 h for entry CC(CN(C)C)CN1c2ccccc2Sc2ccccc21 (stereo not shown) [Trimeprazine tartrate] equals 4.36 µM

CC50 at 24 h recorded for this molecule, CCc1nc(C)c[nH]1 , is > 90 µM

Form field CC50 at 24 h, entry NC[C@H]1O[C@H](O[C@H]2[C@H](O)[C@@H](O[C@H]3O[C@H](CO)[C@@H](O)[C@H](N)[C@H]3O)[C@H](N)C[C@@H]2N)[C@H](N)[C@@H](O)[C@@H]1O [Bekanamycin sulfate] : > 50 µM

Note to self: CC50 at 24 h recorded for CC(C)CC(O)CC(C)C was > 90 µM

###

assay.protocol: in vitro
measurement.context: rat, gh3-tre-luc cells, AC50 (uM) modified / 1000, Tox21_110001=Tox21_111044; viability, 1 nM T3 present, 24 h
property.name: CC50 at 24 h

Entry C1CCC(NC2CCCCC2)CC1 , CC50 at 24 h reported as > 50 µM

###

CC50 at 24 h values for the compounds below.
assay.protocol: in vitro
measurement.context: rat, gh3-tre-luc cells, AC50 (uM) modified / 1000
Counter-ions that a name gives are not always drawn.

> print(dat)
                                   compound  reported.result
1  CCN(Cc1c(F)cccc1Cl)c1c([N+](=O)[O-])cc(C(F)(F)F)cc1[N+](=O)[O-] [Flumetralin]          > 90 µM
2  COc1ccc(N)c([N+](=O)[O-])c1 [4-Methoxy-2-nitroaniline]          > 90 µM
3  CCSc1ccc2c(c1)N(CCCN1CCN(C)CC1)c1ccccc1S2 [Thiethylperazine malate]          > 20 µM
4  O=C(OCc1ccccc1)c1ccccc1 [Benzyl benzoate]          > 90 µM

Notebook: CCOc1ccc(C(C)(C)COCc2cccc(Oc3ccccc3)c2)cc1 [Etofenprox] , CC50 at 24 h read as > 90 µM

Documented CC50 at 24 h of CC1=NN(c2ccc(C(=O)O)cc2)C(=O)C1 : > 90 µM

// sample Clc1ccccc1Cl [1,2-Dichlorobenzene] , its CC50 at 24 h was > 90 µM

// CC50 at 24 h lookup, compound = CC1CCc2nccnc21 (stereo not drawn) , result: > 90 µM

For record NCc1ccccc1Sc1ccccc1CO [Bipenamol] the listed CC50 at 24 h is > 50 µM

Record summary for CNCCO [N-Methylethanolamine] : reported CC50 at 24 h = > 90 µM

Input CC(=N)S [Thioacetamide] . Output CC50 at 24 h: > 90 µM

Lab note: COc1ccc2c3c1O[C@H]1C[C@@H](O)C=C[C@@]31CCN(C)C2 [Galanthamine] gave CC50 at 24 h of > 50 µM

Please fill in: CC50 at 24 h reported for Cc1ccnc2c1NC(=O)c1cccnc1N2C1CC1 [Nevirapine] = > 90 µM

Recorded CC50 at 24 h (compound CCN1CCC[C@H]1CNC(=O)c1c(OC)ccc(Br)c1OC [Remoxipride] ): > 50 µM

Please fill in: CC50 at 24 h reported for CC[N+](CC)(CC)CCOc1ccc(/C=C/c2ccccc2)cc1 [Stilonium iodide] = > 50 µM

Please fill in: CC50 at 24 h reported for O=C(c1ccc(O)cc1)c1ccc(O)cc1O [2,4,4'-Trihydroxybenzophenone] = > 90 µM

Input CO[Si](CCCNCCC[Si](OC)(OC)OC)(OC)OC . Output CC50 at 24 h: > 90 µM

The compound listed as CN1Cc2c(N)cccc2C(c2ccccc2)C1 (stereo not drawn) [Nomifensine] has a reported CC50 at 24 h of 38.8 µM

# CC50 at 24 h (compound: Cc1nnc2n1-c1sc(Br)cc1C(c1ccccc1Cl)=NC2 [Brotizolam] ) is 32.6 µM

// CC50 at 24 h value for CCCCC/C=C/C=C/C=O [(E,E)-2,4-Decadienal] : > 90 µM

The measured CC50 at 24 h associated with CCC(=O)OCc1ccccc1 [Benzyl propanoate] reads > 90 µM

According to the records, this compound c1cncc([C@@H]2CCCCN2)c1 [L-3-(2'-Piperidyl)pyridine] displays CC50 at 24 h of > 90 µM

CC50 at 24 h measured on c1ccc2c(c1)[nH]c1cnccc12 [Norharman] = > 90 µM

GET /value?item= C=CC(=O)OCCCC [Butyl acrylate] &field=CC50 at 24 h returns > 90 µM

Quick note, CC50 at 24 h for COC(=O)C(CN)c1c[nH]c2ccc(OC)cc12 (stereo not drawn) [Indorenate hydrochloride] landed at > 50 µM
